B1: PPFIA4 (parent)
chain: YAGNLHESGVHGALLALDENFDHN

# Variants of: B1
# assay.explanation: protein stability index of a GFP-peptide fusion (GPS, HEK-293T) (PSI 1-6); higher = more stable;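 further: lentivirally expressed fusions sorted by FACS into six bins by GFP to DsRed ratio, PSI derived from sequencing read proportions per bin multiplied by bin number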
# experimental.parameters: c terminus: a fixed tail appended
metric: protein stability index
Give your answer as a number; write no unit.

The cases that follow already have their protein stability index on record.
YAGNLHESGVHGALLALDNNFDHN : 2.2
YAGNEHESGVHGALLALDENFDHN : 4.34
YAGNLHESGVHGATLALDENFDHN : 3.56

Consider now this further variant.
# get_value(readout='protein stability index', item= "YAGNLHESGVHGALLALDEWFDHN" )
2.27
